Cited source for all entries: patent US9850283B2

# assayTarget: Human PD-L1/PD-1 (Homo sapiens, UniProt Q9NZQ7)
# Construct: made in house; host or cells: HEK293T
# Sequence (Q9NZQ7 with tags, fused parts or gaps): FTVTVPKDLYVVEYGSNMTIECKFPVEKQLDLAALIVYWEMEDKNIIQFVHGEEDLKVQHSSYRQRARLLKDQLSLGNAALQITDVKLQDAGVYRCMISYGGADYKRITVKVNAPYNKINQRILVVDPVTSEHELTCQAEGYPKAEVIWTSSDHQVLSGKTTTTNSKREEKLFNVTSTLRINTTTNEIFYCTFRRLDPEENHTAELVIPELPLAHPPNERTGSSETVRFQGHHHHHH
# runDescription: HTRF PD-1-Ig/PD-L1-His binding assay (human PD-L1)
# testConditions: cluster symbol; read-out: HTRF IC50 cluster
Positions of bridges follow the written chain, without caps; N, C: chain ends. Non-standard residues stand in square brackets, D forms with d. Residues, ends and D or L forms follow the SMILES beside them. NMeNle = CCCC[C@H](NC)C(=O)O; NMeA = CN[C@@H](C)C(=O)O
quantityName: IC50

Task: Using the record for CCCC[C@H]1C(=O)N(C)[C@@H](CCCC)C(=O)N[C@@H](CCCNC(=N)N)C(=O)N[C@H](C(=O)NCC(N)=O)CSCC(=O)N[C@@H](Cc2ccccc2)C(=O)N(C)[C@@H](C)C(=O)N[C@@H](CC(N)=O)C(=O)N2CCC[C@H]2C(=O)N[C@@H](Cc2cnc[nH]2)C(=O)N[C@@H](CC(C)C)C(=O)N[C@@H](CCC(N)=O)C(=O)N[C@@H](Cc2c[nH]c3ccccc23)C(=O)N[C@@H](CO)C(=O)N[C@@H](Cc2c[nH]c3ccccc23)C(=O)N1C [Example 1074] ({CH2CO}-F[NMeA]NPHLQWSW[NMeNle][NMeNle]RCG-NH2; thioether N-14) , report its IC50.
Output: > 30.5 nM

---

# assayTarget: LK35.2-hPD-L1 cells / PE-labeled PD-1-Ig (Homo sapiens, UniProt Q9NZQ7)
# Construct: expressed in transfected cells; host or cells: LK35.2 mouse B cell line
# Sequence (Q9NZQ7 19-290): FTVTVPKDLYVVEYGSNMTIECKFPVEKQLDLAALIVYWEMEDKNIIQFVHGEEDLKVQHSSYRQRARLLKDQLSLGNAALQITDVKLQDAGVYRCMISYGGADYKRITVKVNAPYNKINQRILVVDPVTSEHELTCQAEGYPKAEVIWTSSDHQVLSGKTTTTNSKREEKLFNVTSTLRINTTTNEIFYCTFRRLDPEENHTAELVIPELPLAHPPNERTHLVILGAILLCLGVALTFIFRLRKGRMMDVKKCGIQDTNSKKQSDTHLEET
# runDescription: LK35.2-hPD-L1 cell binding high-content screening assay
# Type: cell-based
# testConditions: cell binding assay, cell line not given; cluster symbol; read-out: CBA IC50 cluster
Positions of bridges follow the written chain, without caps; N, C: chain ends. Non-standard residues stand in square brackets, D forms with d. Residues, ends and D or L forms follow the SMILES beside them. 1Nal = N[C@@H](Cc1cccc2ccccc12)C(=O)O; NMeF = CN[C@@H](Cc1ccccc1)C(=O)O; NMeNle = CCCC[C@H](NC)C(=O)O; Sar = CNCC(=O)O
quantityName: IC50

Task: Using the record for CCCC[C@H]1C(=O)N(C)CC(=O)N[C@@H](CC(=O)O)C(=O)N[C@@H](C(C)C)C(=O)N(C)[C@@H](Cc2ccccc2)C(=O)N[C@@H](Cc2ccc(O)cc2)C(=O)N(C)CC(=O)N[C@@H](Cc2cccc3ccccc23)C(=O)N[C@@H](Cc2ccc(O)cc2)C(=O)N[C@@H](CC(C)C)C(=O)N[C@H](C(=O)NCC(N)=O)CSCC(=O)N[C@@H](Cc2ccccc2)C(=O)N(C)[C@@H](Cc2ccccc2)C(=O)N1C [Example 3515] ({CH2CO}-F[NMeF][NMeNle][Sar]DV[NMeF]Y[Sar][1Nal]YLCG-NH2; thioether N-13) , report its IC50.
Output: 4.78 to 72.9 nM

---

# assayTarget: LK35.2-hPD-L1 cells / PE-labeled PD-1-Ig (Homo sapiens, UniProt Q9NZQ7)
# Construct: expressed in transfected cells; host or cells: LK35.2 mouse B cell line
# runDescription: LK35.2-hPD-L1 cell binding high-content screening assay
# Type: cell-based
# testConditions: cluster symbol; cell line of CBA not given (LK35.2-hPD-L1 or 293T-hPD-L1); read-out: CBA IC50 cluster
Positions of bridges follow the written chain, without caps; N, C: chain ends. Non-standard residues stand in square brackets, D forms with d. Residues, ends and D or L forms follow the SMILES beside them. Phe(3,4-Cl2) = N[C@@H](Cc1ccc(Cl)c(Cl)c1)C(=O)O; Trp(7-aza) = N[C@@H](Cc1c[nH]c2ncccc12)C(=O)O; Phe(4-Br) = N[C@@H](Cc1ccc(Br)cc1)C(=O)O; Phe(4-F) = N[C@@H](Cc1ccc(F)cc1)C(=O)O; Bta = N[C@@H](Cc1csc2ccccc12)C(=O)O; NMeF = CN[C@@H](Cc1ccccc1)C(=O)O; hPhe = N[C@@H](CCc1ccccc1)C(=O)O; NMeNle = CCCC[C@H](NC)C(=O)O; Pip = O=C(O)[C@@H]1CCCCN1; NMeA = CN[C@@H](C)C(=O)O; Aib = CC(C)(N)C(=O)O; Sar = CNCC(=O)O
quantityName: IC50

Check out these entries, answers already filled in.
compound: CCCC[C@H]1C(=O)N(C)[C@@H](CCCC)C(=O)N[C@@H](CCCNC(=N)N)C(=O)N[C@H](C(=O)NCC(N)=O)CSCC(=O)N[C@@H](Cc2ccccc2)C(=O)N(C)[C@@H](C)C(=O)N[C@@H](CC(N)=O)C(=O)N2CCC[C@H]2C(=O)N[C@@H](Cc2cnc[nH]2)C(=O)N[C@@H](CC(C)C)C(=O)N(C)CC(=O)N[C@@H](Cc2c[nH]c3ccccc23)C(=O)N[C@@H](CO)C(=O)N[C@@H](Cc2c[nH]c3ncccc23)C(=O)N1C [Example 1038] ({CH2CO}-F[NMeA]NPHL[Sar]WS[Trp(7-aza)][NMeNle][NMeNle]RCG-NH2; thioether N-14)
IC50: > 74.3 nM
//
compound: CCCC[C@H]1C(=O)N(C)[C@@H](CCCC)C(=O)N[C@@H](CCCNC(=N)N)C(=O)N[C@H](C(=O)NCC(=O)O)CSCC(=O)N[C@@H](Cc2ccccc2)C(=O)N(C)[C@@H](C)C(=O)N[C@@H](CC(N)=O)C(=O)N2CCC[C@H]2C(=O)N[C@@H](Cc2cnc[nH]2)C(=O)N[C@@H](CC(C)C)C(=O)N(C)CC(=O)N[C@@H](Cc2c[nH]c3ccccc23)C(=O)N[C@@H](CO)C(=O)N[C@@H](Cc2c[nH]c3ccccc23)C(=O)N1C [Example 1076] ({CH2CO}-F[NMeA]NPHL[Sar]WSW[NMeNle][NMeNle]RCG-OH; thioether N-14)
IC50: 4.78 to 72.9 nM
//
compound: CCCC[C@H]1C(=O)N(C)[C@@H](CCCC)C(=O)N[C@@H](CCCNC(=N)N)C(=O)N[C@H](C(=O)NCC(N)=O)CSCC(=O)N[C@@H](Cc2ccccc2)C(=O)N(C)[C@@H](C)C(=O)N[C@@H](CC(N)=O)C(=O)N2CCC[C@H]2C(=O)N[C@@H](Cc2cnc[nH]2)C(=O)N[C@@H](CC(C)C)C(=O)N(C)CC(=O)N[C@@H](Cc2c[nH]c3ccccc23)C(=O)NC(C)(C)C(=O)N[C@@H](Cc2c[nH]c3ccccc23)C(=O)N1C [Example 1116] ({CH2CO}-F[NMeA]NPHL[Sar]W[Aib]W[NMeNle][NMeNle]RCG-NH2; thioether N-14)
IC50: > 74.3 nM
//
compound: CCCC[C@H]1C(=O)N(C)CC(=O)N[C@@H](CC(=O)O)C(=O)N[C@@H](C(C)C)C(=O)N(C)[C@@H](Cc2ccccc2)C(=O)N[C@@H](Cc2ccc(O)cc2)C(=O)N(C)CC(=O)N[C@@H](Cc2csc3ccccc23)C(=O)N[C@@H](Cc2ccc(O)cc2)C(=O)N[C@@H](CC(C)C)C(=O)N[C@H](C(=O)NCC(N)=O)CSCC(=O)N[C@@H](Cc2ccc(F)cc2)C(=O)N(C)[C@@H](Cc2ccccc2)C(=O)N1C [Example 3116] ({CH2CO}-[Phe(4-F)][NMeF][NMeNle][Sar]DV[NMeF]Y[Sar][Bta]YLCG-NH2; thioether N-13)
IC50: 0.158 to 4.71 nM
//
compound: CCCC[C@H]1C(=O)N(C)CC(=O)N[C@@H](CC(=O)O)C(=O)N[C@@H](C(C)C)C(=O)N(C)[C@@H](Cc2ccccc2)C(=O)N[C@@H](Cc2ccc(O)cc2)C(=O)N(C)CC(=O)N[C@@H](Cc2c[nH]c3ccccc23)C(=O)N[C@@H](Cc2ccc(Cl)c(Cl)c2)C(=O)N[C@@H](CC(C)C)C(=O)N[C@H](C(=O)NCC(N)=O)CSCC(=O)N[C@@H](Cc2ccccc2)C(=O)N(C)[C@@H](Cc2ccccc2)C(=O)N1C [Example 3100] ({CH2CO}-F[NMeF][NMeNle][Sar]DV[NMeF]Y[Sar]W[Phe(3,4-Cl2)]LCG-NH2; thioether N-13)
IC50: > 74.3 nM

Task: Using the record for CCCC[C@H]1C(=O)N[C@@H](CCCNC(=N)N)C(=O)N[C@H](C(=O)NCC(N)=O)CSCC(=O)N[C@@H](Cc2ccccc2)C(=O)N(C)[C@@H](C)C(=O)N[C@@H](CC(N)=O)C(=O)N2CCC[C@H]2C(=O)N[C@@H](Cc2cnc[nH]2)C(=O)N[C@@H](CC(C)C)C(=O)N(C)CC(=O)N[C@@H](Cc2c[nH]c3ccccc23)C(=O)N[C@@H](CO)C(=O)N[C@@H](Cc2c[nH]c3ccccc23)C(=O)N[C@@H](CCc2ccccc2)C(=O)N1C [Example 1006] ({CH2CO}-F[NMeA]NPHL[Sar]WSW[hPhe][NMeNle]RCG-NH2; thioether N-14) , report its IC50.
Output: > 74.3 nM

Task: And then CCCC[C@H]1C(=O)N(C)CC(=O)N[C@@H](CC(=O)O)C(=O)N[C@@H](C(C)C)C(=O)N(C)[C@@H](Cc2ccccc2)C(=O)N[C@@H](Cc2ccc(O)cc2)C(=O)N(C)CC(=O)N[C@@H](Cc2c[nH]c3ccccc23)C(=O)N[C@@H](Cc2ccc(O)cc2)C(=O)N[C@@H](CC(C)C)C(=O)N[C@H](C(=O)NCC(N)=O)CSCC(=O)N[C@@H](Cc2ccc(Br)cc2)C(=O)N(C)[C@@H](Cc2ccccc2)C(=O)N1C [Example 3081] ({CH2CO}-[Phe(4-Br)][NMeF][NMeNle][Sar]DV[NMeF]Y[Sar]WYLCG-NH2; thioether N-13) , what is it?
Output: 4.78 to 72.9 nM

Task: And then CCCC[C@H]1C(=O)N(C)[C@@H](CCCC)C(=O)N[C@@H](CCCNC(=N)N)C(=O)N[C@H](C(=O)NCC(N)=O)CSCC(=O)N[C@@H](Cc2ccccc2)C(=O)N(C)[C@@H](C)C(=O)N[C@@H](CC(N)=O)C(=O)N2CCC[C@H]2C(=O)N[C@@H](Cc2cnc[nH]2)C(=O)N[C@@H](CC(C)C)C(=O)N2CCCC[C@H]2C(=O)N[C@@H](Cc2c[nH]c3ccccc23)C(=O)N[C@@H](CO)C(=O)N[C@@H](Cc2c[nH]c3ccccc23)C(=O)N1C [Example 1196] ({CH2CO}-F[NMeA]NPHL[Pip]WSW[NMeNle][NMeNle]RCG-NH2; thioether N-14) , what is it?
Output: 4.78 to 72.9 nM
